These measurements were taken from PubChem BioAssay (NCI).

- Test system: UACC-62 melanoma
- assay_overview: NCI-60 one-dose screen, 48 h (100 = growth as untreated, 0 = no growth, -100 = all killed)
- experimental_parameters: 10 µM
This is part of a sample that, as a whole, favours compounds with a hit. Of some 83,000 tested, about 20% had one in any assay. Activity calls are given as the source filed them. The calls were made as follows: active = growth percent below 10; inactive = the rest.
readout_name: growth

> print(dat)
                                 cpd.smiles  readout.name        data.value
1  O=C1/C(=C/c2ccc([N+](=O)[O-])s2)Oc2ccc(Cl)cc21        growth   -82.4% (active)
2         O=C1c2cc(Cl)ccc2-c2c(O)cc(Cl)cc21        growth    85% (inactive)
3           CCCCCCCCCCCCCCCC(=O)N1CCN(C)CC1        growth  88.8% (inactive)
4                         CC(=O)CS(C)(=O)=O        growth   108% (inactive)
5                 CCOC(=O)CSC(=S)SCC(=O)OCC        growth   101% (inactive)
6  CCc1ccc(-c2nnc(COc3ccc(-c4nc5ccccc5[nH]4)cc3OC)o2)cc1        growth    91% (inactive)
